growth: recorded values
Tested on: E. coli TESEC Alr+ wild-type control
Assay: growth (OD600 after 10 h); higher = more growth (less inhibition)
Details: compound 0.1 mM; raw OD600 reference: median of DMSO wells 0.49, cell-free background 0.052
Counter-ions that a name gives are not always drawn.
// print number alone

The cases that follow already have their growth on record.
// query Look up growth: COc1ccccc1OCCNCC(O)COc1cccc2[nH]c3ccccc3c12 (configuration not stated)
// result 0.167

// query Now consider Clc1cnccn1 .
// result 0.586

// query Now consider CS(=O)(=O)c1ccc(C2=C(c3ccccc3)C(=O)OC2)cc1 .
// result 0.455

// query Now consider CN(C)CCN(Cc1cccs1)c1ccccn1 [Methapyrilene hydrochloride] .
// result 0.644

// query Now consider CCCCCCC[N+](CC)(CC)CCCCc1ccc(Cl)cc1 [Clofilium tosylate] .
// result 0.0487

Others:
// query Look up growth: N[C@@H](C(=O)N[C@@H]1C(=O)N2C(C(=O)O)=C(Cl)CC[C@H]12)c1ccccc1
// result 0.529

// query Now consider CCN(CC)CCOC(=O)C1(c2ccc([N+](=O)[O-])cc2)CCCC1 [Nitrocaramiphen hydrochloride] .
// result 0.488

// query Now consider O=C(O[C@@H]1C[C@@H]2C[C@H]3C[C@H](C1)N2CC3=O)c1c[nH]c2ccccc12 [Dolasetron mesilate] .
// result 0.473

---

Test system: E. coli TESEC Mtb Alr
Assay: growth (OD600 after 10 h); higher = more growth (less inhibition)
Settings: arabinose 10000000 nM; compound 0.1 mM; raw OD600 reference: median of DMSO wells […], cell-free background 0.052
Counter-ions that a name gives are not always drawn.
Measured metric: growth

The cases that follow already have their growth on record.
// query Look up growth: COCCc1ccc(OCC(O)CNC(C)C)cc1 (racemic) [Metoprolol-(+,-) (+)-tartrate salt]
// result 0.35

// query Now consider COc1ccc(C(Cl)=C(c2ccc(OC)cc2)c2ccc(OC)cc2)cc1 .
// result 0.407

// query Now consider CO/N=C(\C(=O)N[C@@H]1C(=O)N2C(C(=O)O)=C(C[N+]3(C)CCCC3)CS[C@H]12)c1csc(N)n1 [Cefepime hydrochloride] .
// result 0.0731

Others:
// query Look up growth: CCN1C(=O)NC(c2ccccc2)C1=O (configuration not stated)
// result 0.353

// query Now consider CC[C@H]1OC(=O)[C@H](C)[C@@H](O[C@H]2C[C@@](C)(OC)[C@@H](O)[C@H](C)O2)[C@H](C)[C@@H](O[C@@H]2O[C@H](C)C[C@H](N(C)C)[C@H]2O)[C@](C)(O)C[C@@H](C)/C(=N\OCOCCOC)[C@H](C)[C@@H](O)[C@]1(C)O .
// result 0.0513

// query Now consider CCCc1cc(=O)[nH]c(=S)[nH]1 .
// result 0.345

// query Now consider CC(C)NCC(O)COc1cccc2[nH]ccc12 (configuration not stated) .
// result 0.376

// query Now consider N[C@@H]1CONC1=O .
// result 0.328

// query Now consider C[C@H](N)[C@H](O)c1cccc(O)c1 [Metaraminol bitartrate] .
// result 0.356

// query Now consider Oc1ccc(C2CNCCc3c2cc(O)c(O)c3Cl)cc1 (configuration not stated) .
// result 0.0738

// query Now consider COc1ccc(CC(C)NCC(O)c2ccc(O)c(NC=O)c2)cc1 (configuration not stated) [Formoterol fumarate] .
// result 0.306

// query Now consider CC[N+](C)(C)c1cccc(O)c1 [Edrophonium chloride] .
// result 0.346

// query Now consider Nc1nc(Cl)nc2c1ncn2[C@H]1C[C@H](O)[C@@H](CO)O1 .
// result 0.219

// query Now consider CCCC1O[C@@H]2C[C@H]3[C@@H]4CCC5=CC(=O)C=C[C@]5(C)[C@H]4[C@@H](O)C[C@]3(C)[C@]2(C(=O)CO)O1 (some centres not stated) [Budesonide] .
// result 0.269

// query Now consider CNCC[C@@H](Oc1ccccc1C)c1ccccc1 [Tomoxetine hydrochloride] .
// result 0.326

// query Now consider NC(=O)c1cnccn1 [Pyrazinamide] .
// result 0.366

// query Now consider CCn1cc(C(=O)O)c(=O)c2cc(F)c(N3CCN(C)CC3)cc21 .
// result 0.0515

---

growth: recorded values
System: E. coli TESEC Mtb Alr
Experiment: growth (OD600 after 10 h); higher = more growth (less inhibition)
Details: arabinose 100 nM; compound 0.1 mM; raw OD600 reference: median of DMSO wells 0.413, cell-free background 0.052
// print number alone

// query Look up growth: CC(=O)OCC(=O)[C@@]12OC(C)(C)O[C@@H]1C[C@H]1[C@@H]3C[C@H](F)C4=CC(=O)C=C[C@]4(C)[C@@]3(F)[C@@H](O)C[C@@]12C [Fluocinonide]
// result 0.432

// query Now consider CC(=O)c1ccc(S(=O)(=O)NC(=O)NC2CCCCC2)cc1 [Acetohexamide] .
// result 0.405

// query Now consider CCCOc1ccccc1-c1nc2[nH]nnc2c(=O)[nH]1 [Zaprinast] .
// result 0.396

---

growth: recorded values
System: E. coli TESEC Mtb DapB
Test: growth (OD600 after 10 h); higher = more growth (less inhibition)
Details: arabinose induction (level): High; compound 0.1 mM; raw OD600 reference: median of DMSO wells […], cell-free background 0.041
Where a name gives a salt, the structure may show the parent alone.
// print number alone

// query Look up growth: CO/N=C(\C(=O)N[C@@H]1C(=O)N2C(C(=O)O)=C(COC(N)=O)CS[C@H]12)c1ccco1 [Cefuroxime sodium salt]
// result 0.229

// query Now consider CC1CS(=O)(=O)CCN1/N=C/c1ccc([N+](=O)[O-])o1 (centres undefined) .
// result 0.188

// query Now consider CC(C)C(=O)c1c(C(C)C)nn2ccccc12 .
// result 0.194

// query Now consider CCCCNc1c(C(=O)OCC)c(C)nc2c1cnn2CC [Tracazolate hydrochloride] .
// result 0.156

// query Now consider CCN1CCN(c2cc3c(cc2F)c(=O)c(C(=O)O)cn3C2CC2)CC1 .
// result 0.0496

// query Now consider CSc1ccc2c(c1)C(N1CCN(C)CC1)Cc1ccccc1S2 (centres undefined) [Methiothepin maleate] .
// result 0.0514

// query Now consider CN(Cc1cc(Br)cc(Br)c1N)C1CCCCC1 [Bromhexine hydrochloride] .
// result 0.0483

// query Now consider CC(=O)N(CC(O)CO)c1c(I)c(C(=O)NCC(O)CO)c(I)c(C(=O)NCC(O)CO)c1I (centres undefined) [Iohexol] .
// result 0.195

// query Now consider CC(Oc1c(Cl)cccc1Cl)C1=NCCN1 (centres undefined) .
// result 0.205

---

growth: recorded values
Tested on: E. coli TESEC Mtb Alr
Experiment: growth (OD600 after 10 h); higher = more growth (less inhibition)
Details: arabinose 1000000 nM; compound 0.1 mM; raw OD600 reference: median of DMSO wells 0.193, cell-free background 0.041
Counter-ions that a name gives are not always drawn.
// print number alone

The cases that follow already have their growth on record.
// query Missing value: growth, E. coli TESEC Mtb Alr, entry C#C[C@]1(O)CC[C@H]2[C@@H]3CCC4=CCCC[C@@H]4[C@H]3CC[C@@]21C . Fill in?
// result 0.164

// query Now consider NNc1nncc2ccccc12 [Hydralazine hydrochloride] .
// result 0.12

Now let's try a different one.
// query Missing value: growth, E. coli TESEC Mtb Alr, entry CC[C@H]1OC(=O)[C@H](C)[C@@H](O[C@H]2C[C@@](C)(OC)[C@@H](O)[C@H](C)O2)[C@H](C)[C@@H](O[C@@H]2O[C@H](C)C[C@H](N(C)C)[C@H]2O)[C@](C)(O)C[C@@H](C)CN(C)[C@H](C)[C@@H](O)[C@]1(C)O . Fill in?
// result 0.0399

---

System: E. coli TESEC Mtb DapB
Experiment: growth (OD600 after 10 h); higher = more growth (less inhibition)
Conditions: arabinose induction (level): High; compound 0.1 mM; raw OD600 reference: median of DMSO wells […], cell-free background 0.041
Counter-ions that a name gives are not always drawn.
Measured metric: growth
// print number alone

// query Look up growth: O=C(Cn1ccnc1[N+](=O)[O-])NCCO
// result 0.202

// query Now consider CC(C)(C)NC(=O)[C@@H]1C[C@@H]2CCCC[C@@H]2CN1C[C@@H](O)[C@H](Cc1ccccc1)NC(=O)[C@H](CC(N)=O)NC(=O)c1ccc2ccccc2n1 [Saquinavir mesylate] .
// result 0.0529

// query Now consider CCn1cc(C(=O)O)c(=O)c2ccc(C)nc21 [Nalidixic acid sodium salt] .
// result 0.0992

// query Now consider CNC(C)CCC=C(C)C (stereo not drawn) [Isometheptene mucate] .
// result 0.22

// query Now consider COCC(=O)Nc1c(I)c(C(=O)NCC(O)CO)c(I)c(C(=O)N(C)CC(O)CO)c1I (stereo not drawn) [Iopromide] .
// result 0.213

// query Now consider O=C1c2ccccc2C(=O)C1c1ccccc1 .
// result 0.194

// query Now consider CN(C)CC/C=C1/c2ccccc2Sc2ccc(Cl)cc21 [Chlorprothixene hydrochloride] .
// result 0.0467

Now let's try a different one.
// query Look up growth: O=C1CC2(CCCC2)CC(=O)N1CCCCN1CCN(c2ncccn2)CC1 [Buspirone hydrochloride]
// result 0.185
